# Test system: Human promyelocytic leukemia HL-60 cells
# experiment_notes: Cell differentiation of HL-60 cells, nitroblue tetrazolium (NBT) reduction
# Format: cell-based
# condition_summary: Homo sapiens; HL-60 (Table 15); read-out: NBT ED50
property_label: EC50

{"compound": "CC1=C(/C=C/C(C)=C/C=C/C(C)=C/C(=O)Oc2cc(=O)oc3ccc(C)cc23)C(C)(C)CCC1 [Compound I-35, 4-retinoyloxy-6-methyl-coumarin]", "EC50": "6.7 µM"}
{"compound": "CC1=C(/C=C/C(C)=C/C=C/C(C)=C/C(=O)Oc2cc(=O)oc3c(C)cccc23)C(C)(C)CCC1 [Compound I-29]", "EC50": "> 10 µM"}
{"compound": "CC1=C(/C=C/C(C)=C/C=C/C(C)=C/C(=O)Oc2ccc3c(C)cc(=O)oc3c2OC(=O)/C=C(C)/C=C/C=C(C)/C=C/C2=C(C)CCCC2(C)C)C(C)(C)CCC1 [Compound I-36, 4-methyl-7,8-diretinoyloxy-coumarin]", "EC50": "> 10 µM"}

From here, focus on the item given below.
Record summary for CC1=C(/C=C/C(C)=C/C=C/C(C)=C/C(=O)Oc2cc(OC(=O)/C=C(C)/C=C/C=C(C)/C=C/C3=C(C)CCCC3(C)C)c3c(C)cc(=O)oc3c2)C(C)(C)CCC1 [Compound I-33, 4-methyl-5,7-diretinoyloxy-coumarin] : reported EC50 = > 10 µM
